Measured values drawn from patent US10988465B2 for this set.

Test: 7-day mouse toxicology study: toxicokinetics (plasma, brain, CSF), 30 mg/kg/day PO
Type: in vivo, male C57BL/6 mice
Details: male, C57BL/6, mouse, plasma, po, 30 mg/kg, Day 1, Plasma, 30 mg/kg PO; read-out: Terminal t1/2 (converted)
measurement type: half-life (h)
Write it as a number; the unit h goes unstated.

Look up half-life of Cc1cccnc1[C@@H]1CCC[C@H](c2nc3cccc(N4CCN(C)CC4)c3[nH]2)N1C (racemic) and report it.
2.62

====

Assay: 7-day mouse toxicology study: toxicokinetics (plasma, brain, CSF), 30 mg/kg/day PO
Format: in vivo, male C57BL/6 mice
Details: male, C57BL/6, mouse, plasma, po, 30 mg/kg/day, plasma, D 7-30 mg/kg, PO; read-out: AUClast (p)
measurement type: AUC(0-t)

Look up AUC(0-t) of Cc1cccnc1[C@@H]1CCC[C@H](c2nc3cccc(N4CCN(C)CC4)c3[nH]2)N1C (racemic) [I-3] and report it.
3560 ng·h/mL
